Test: Quantitative High-Throughput drug screen in 47 multiple myeloma cell lines against the NCATS MIPE library collection: MOLP8_DSMZ cell viability assay (AID 1918977); also: potency is read from the fitted curve at half-maximal effect; nearly all actives have a fitted effect of over 45% in size
Conditions: MOLP8 myeloma viability, CellTiter-Glo ATP luminescence, 48 h; series mostly up to 45.8 µM
Records with an inconclusive call do not appear. Active and inactive are the calls of the source. Calls follow the shape of the dose curve; as a rule, active = well fitted cell-killing curve with a large enough effect; inconclusive = small, poorly fitted or top-dose-only effect, or effect the other way; inactive = no such curve, though single readings can be large or run the other way.

# molecule, Potency
rows = [
    ("Cc1ccc(-c2ncn(-c3ccc(Nc4nccc(-c5cccc(N6CCOCC6)c5)n4)cc3)n2)cn1", "0.0935 µM (active)"),
    ("CC[C@H]1CN2CCc3cc(OC)c(OC)cc3[C@H]2C[C@@H]1C[C@@H]1NCCc2cc(OC)c(OC)cc21", "0.105 µM (active)"),
    ("C=C1C(=CC=C2CCC[C@]3(C)[C@@H]([C@H](C)C=C[C@H](C)C(C)C)CC[C@@H]23)C[C@@H](O)C[C@@H]1O", "7.43 µM (active)"),
    ("Cc1cc(Nc2cc(NC(=O)c3c(Cl)cccc3Cl)ccn2)nc(N)n1", "23.5 µM (active)"),
    ("COc1cc(-c2nn(C3CCC(N4CCN(C(C)=O)CC4)CC3)c3ncnc(N)c23)ccc1NC(=O)c1cc2ccccc2n1C (centres undefined)", "10.5 µM (active)"),
    ("O=C(Nc1ncc(-c2cc(C(F)F)nn2-c2c(Cl)cccc2Cl)s1)C1CC1", "2.09 µM (active)"),
    ("Nc1ncnc2c1c(-c1cccc(OCc3ccccc3)c1)cn2C1CC(CN2CCCC2)C1 (centres undefined)", "16.6 µM (active)"),
    ("Cc1ccc(C(N)=O)cc1Nc1nccc(-c2cn(C(C)C)c3cnccc23)n1", "4.69 µM (active)"),
    ("CC(=O)Nc1nc(C)c(-c2ccc(Cl)c(S(=O)(=O)NCCO)c2)s1", "9.35 µM (active)"),
]

---

Assay: qHTS of pediatric cancer cell lines to identify multiple opportunities for drug repurposing: Confirmatory screen for LAN-5 cells (AID 1347113); also: potency is read from the fitted curve at half-maximal effect; nearly all actives have a fitted effect of over 65% in size
Conditions: LAN-5 neuroblastoma cell viability; series mostly up to 45.9 µM
Inconclusive results are not listed. Active and inactive are the calls of the source. Calls follow the shape of the dose curve; as a rule, active = well fitted cell-killing curve with a large enough effect; inconclusive = small, poorly fitted or top-dose-only effect, or effect the other way; inactive = no such curve, though single readings can be large or run the other way.
measured-quantity: Potency

# query-smiles, measured-quantity, result
data = [
    ("Cc1cc(N2CCOCC2)cc2[nH]c(-c3c(NC[C@@H](O)c4cccc(Cl)c4)cc[nH]c3=O)nc12", "Potency", "1170 nM (active)"),
    ("COc1cccc2c(NCc3ccccc3)nc(-n3c(N)nc4ccccc43)nc12", "Potency", "9270 nM (active)"),
    ("COC(=O)[C@]12CCC(C)(C)C[C@@H]1[C@@H]1C(=O)C=C3[C@@]4(C)C=C(C#N)C(=O)C(C)(C)[C@@H]4CC[C@@]3(C)[C@]1(C)CC2", "Potency", "2610 nM (active)"),
    ("CC(C)c1cnn2c(NCc3ccccc3)cc(N[C@@H](CO)[C@H](O)CO)nc12", "Potency", "293 nM (active)"),
]

---

Test system: Tov112D
Assay: Primary qHTS to identify gynecologic anti-cancer compounds using libraries of approved drugs and bioactive compounds (AID 1345084); also: nearly all actives have a fitted effect of over 55% in size
Details: Gynecologic cancer cell panel viability, ATPlite luminescence, 48 h; series mostly up to 57.5 µM
Results filed as inconclusive are left out. Calls of active or inactive are those of the source. Calls come from the whole dose curve; as a rule, active = well fitted cell-killing curve with a large enough effect; inconclusive = small, poorly fitted or top-dose-only effect, or effect the other way; inactive = flat fitted curve, though single readings scatter.
Possible outcomes: YES (active), NO (inactive)

# compound, category
measured = [
    ("Clc1cccc(-c2nnnn2Cc2cccnc2)c1Cl", "NO"),
    ("CN(C1CCc2c(c3ccccc3n2CC(=O)O)C1)S(=O)(=O)c1ccc(F)cc1 (configuration not stated)", "NO"),
    ("CNC(=O)c1ccc(N2C(=S)N(c3cnc(C#N)c(C(F)(F)F)c3)C(=O)C23CCC3)cc1F", "NO"),
    ("NC(=O)Nc1cc(-c2cccc(F)c2)sc1C(=O)N[C@H]1CCCNC1", "YES"),
    ("O=C(Cc1ccc(-c2ccc(OCCN3CCOCC3)cc2)cn1)NCc1ccccc1", "YES"),
    ("O=C(c1cncc(Br)c1)N1CCC(N2CCCC2)CC1", "NO"),
    ("CCc1cc2c(cc1N1CCC(N3CCOCC3)CC1)C(C)(C)c1[nH]c3cc(C#N)ccc3c1C2=O", "NO"),
]
